# self-cleavage kobs at 2500 uM GlcN6P values compiled below
B1: glmS ribozyme (parent)
chain: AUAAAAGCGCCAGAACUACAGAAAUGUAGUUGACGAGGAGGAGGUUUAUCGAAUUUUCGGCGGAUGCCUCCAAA

- Variants of: B1
- procedureSummary: self-cleavage kobs at 2500 uM GlcN6P; higher = faster cleavage; RNA array
- measurementParameters: with glucosamine-6-phosphate
This sample holds only a part of the variants without activity.
Write the answer as a number in s⁻¹, unit excluded.

Example entries and their recorded answers appear below.
{"residueChange": "A12C A15G", "quantitativeReadout": 0.00626}
{"residueChange": "G32U C68U", "quantitativeReadout": "7.28e-05"}
{"residueChange": "A52G U55A C71A", "quantitativeReadout": 0.000169}

Provide only the value of recorded self-cleavage kobs at 2500 uM GlcN6P for C11G A14G G63U C70A
0.000123

Provide only the value of recorded self-cleavage kobs at 2500 uM GlcN6P for A52U C68U C70U
5.68e-05

Provide only the value of recorded self-cleavage kobs at 2500 uM GlcN6P for G40U U55G
0.00142

Provide only the value of recorded self-cleavage kobs at 2500 uM GlcN6P for A6U A15G U30C
0.00023

Provide only the value of recorded self-cleavage kobs at 2500 uM GlcN6P for U55A C67G
0.00013

Provide only the value of recorded self-cleavage kobs at 2500 uM GlcN6P for U31C G32C A39G
0.000381

Provide only the value of recorded self-cleavage kobs at 2500 uM GlcN6P for C16G U57A C68U
5.4e-05

Provide only the value of recorded self-cleavage kobs at 2500 uM GlcN6P for A15C U65C
9.83e-05

Provide only the value of recorded self-cleavage kobs at 2500 uM GlcN6P for C19A U65A
0.00137
